target: memapsin 2 (Cricetulus griseus, UniProt G3IAK4)
Construct: endogenous in cells
Sequence (G3IAK4 22-501): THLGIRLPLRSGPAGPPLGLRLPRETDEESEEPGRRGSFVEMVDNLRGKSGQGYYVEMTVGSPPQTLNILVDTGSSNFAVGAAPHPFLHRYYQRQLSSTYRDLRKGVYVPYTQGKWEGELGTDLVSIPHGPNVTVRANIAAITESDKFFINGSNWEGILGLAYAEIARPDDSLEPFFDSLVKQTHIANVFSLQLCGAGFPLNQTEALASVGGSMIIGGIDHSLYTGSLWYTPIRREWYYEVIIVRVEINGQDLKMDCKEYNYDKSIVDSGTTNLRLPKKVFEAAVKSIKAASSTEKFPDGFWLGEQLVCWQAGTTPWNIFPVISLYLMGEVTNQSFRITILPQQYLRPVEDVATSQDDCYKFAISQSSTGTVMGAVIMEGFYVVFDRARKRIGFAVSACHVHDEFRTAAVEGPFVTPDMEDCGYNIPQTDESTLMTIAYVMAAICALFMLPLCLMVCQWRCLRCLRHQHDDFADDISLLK
method: Cellular Aβ IC50 determination (Aβ40 sandwich ELISA)
details: symbol in parentheses; Chinese hamster ovary cells over-expressing human APP695 (London and Swedish mutations), Aβ40, 24 h; read-out: Activity against memapsin 2: (IC50)
Protocol: Cellular Aβ C50 Determinations. The potency of compounds against memapsin 2 catalytic activity is determined in a cellular assay of Aβ production. […] Chinese hamster ovary cells that over-express human APP695 with the London and Swedish mutations are seeded in multi-well plates at 10% confluency. Compounds are dissolved in DMSO to concentrations near 1 mM, and diluted into culture media to a final concentration near 4 μM (final 0.4% DMSO). […]
pIC50: −log10 of the molar value.
I'd be grateful if you could share measured pIC50 for these entries.

Using the record for CN(CCC[C@@H](c1ccccc1)N1Cc2cc(Oc3ccccc3)ccc2N=C1N)C1CCCCC1 [Inhibitor 0418] , state its measured pIC50.
> 5.30

Using the record for CN(C(=O)OC[C@@H](c1ccccc1)N1Cc2cc(Oc3ccccc3)ccc2N=C1N)C1CCCCC1 [Inhibitor 0328] , state its measured pIC50.
> 5.30

Using the record for CN(C(=O)OC[C@@H](C1CCCCC1)N1Cc2cc(Oc3ccccc3)ccc2N=C1N)C1CCCCC1 [Inhibitor 0458] , state its measured pIC50.
< 5.30

Using the record for CN(C(=O)OCC(C1CCOC1)N1Cc2cc(Oc3ccccc3)ccc2N=C1N)C1CCCCC1 (stereo not shown) [Inhibitor 0548] , state its measured pIC50.
> 5.30

Using the record for CN(C(=O)OC[C@@H](C1CCCOC1)N1Cc2cc(Oc3ccccc3)ccc2N=C1N)C1CCCCC1 (stereo partly shown) [Inhibitor 0318] , state its measured pIC50.
> 5.30

Using the record for CN(CCC[C@@H](C1CCCCC1)N1Cc2cc(Oc3ccccc3)ccc2N=C1N)C1CCCCC1 [Inhibitor 0188] , state its measured pIC50.
> 7.30

Using the record for NC1=Nc2ccc(Oc3ccccc3)cc2CN1[C@@H](CCN(Cc1ccccc1)Cc1ccccc1)C1CCCCC1 [Inhibitor 0448] , state its measured pIC50.
> 5.30

----------
I'd be grateful if you could share measured Ki for these entries.
target: memapsin 2 (Homo sapiens, UniProt P56817)
Sequence (P56817 46-501): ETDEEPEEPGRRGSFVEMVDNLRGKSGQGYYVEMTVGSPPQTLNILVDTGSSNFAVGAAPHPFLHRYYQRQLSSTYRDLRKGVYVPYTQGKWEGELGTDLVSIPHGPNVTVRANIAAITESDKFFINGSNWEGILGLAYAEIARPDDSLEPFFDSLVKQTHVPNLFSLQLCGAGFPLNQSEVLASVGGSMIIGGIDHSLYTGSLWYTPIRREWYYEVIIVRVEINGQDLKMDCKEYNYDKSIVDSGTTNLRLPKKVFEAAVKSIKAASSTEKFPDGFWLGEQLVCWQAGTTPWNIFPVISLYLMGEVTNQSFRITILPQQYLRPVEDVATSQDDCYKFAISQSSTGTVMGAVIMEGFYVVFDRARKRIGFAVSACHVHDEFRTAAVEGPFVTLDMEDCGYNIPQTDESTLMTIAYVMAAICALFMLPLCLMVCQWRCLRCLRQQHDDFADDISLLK
method: Inhibition of memapsin 2 catalytic activity toward fluorogenic substrate FS-2
Assay type: biochemical
details: pH 4, 37° C., 20 minutes pre-incubation, tight-binding model; symbol outside parentheses; read-out: Activity against memapsin 2: Ki

Using the record for Cc1nc(CN(C(=O)OC[C@@H](C2CCCCC2)N2Cc3cc(Oc4ccccc4)ccc3N=C2N)C2CCCCC2)cs1 [Inhibitor 0579] , state its measured Ki.
< 5000 nM

Using the record for Cc1nc(CN(C(=O)OC[C@@H](C2CCCCC2)N2Cc3cc(Oc4ccccc4)ccc3N=C2N)C2CCCCC2)co1 [Inhibitor 0519] , state its measured Ki.
< 5000 nM

Using the record for CC(NCC[C@@H](C1CCCCC1)N1Cc2cc(Oc3ccccc3)ccc2N=C1N)c1ccccc1 (stereo partly shown) [Inhibitor 0438] , state its measured Ki.
< 500 nM

Using the record for CC(C)c1nc(CN(CCC[C@@H](C2CCCCC2)N2Cc3cc(Oc4ccccc4)ccc3N=C2N)C2CCCCC2)cs1 [Inhibitor 0659] , state its measured Ki.
< 500 nM

Using the record for NC1=Nc2ccc(Oc3ccccc3)cc2CN1[C@@H](CCCN(Cc1cscn1)C1CCCCC1)C1CCCCC1 [Inhibitor 0979] , state its measured Ki.
< 500 nM

Using the record for Cc1nc(CN(CCC[C@@H](C2CCCCC2)N2Cc3cc(Oc4ccccc4)ccc3N=C2N)C2CCCCC2)c(C)o1 [Inhibitor 0509] , state its measured Ki.
< 500 nM

Using the record for Cc1nc(CN(CCC[C@@H](C2CCCCC2)N2Cc3cc(Oc4ccccn4)ccc3N=C2N)C2CCCCC2)cs1 [Inhibitor 1219] , state its measured Ki.
< 5000 nM
